Source: BindingDB's records for doi:10.1016/s0960-894x(00)00026-3

assay: Inhibition of Clostridium histolyticum collagenase using a linear regression program
Measured quantity: log10 Ki (log10 of the value in µM)

{"columns": ["Molecule", "Measured quantity", "Readout number"],
 "data": [
  ["CC(C(=O)NO)N(Cc1ccc([N+](=O)[O-])cc1)Sc1ccc([N+](=O)[O-])cc1[N+](=O)[O-] (stereo not given)", "log10 Ki", 0.95],
  ["CC(C(=O)O)N(Cc1ccc([N+](=O)[O-])cc1)S(=O)(=O)c1ccc(NC(=O)OC(C)(C)C)cc1 (stereo not given)", "log10 Ki", 0.38],
  ["CC(=O)Nc1ccc(S(=O)(=O)N(Cc2ccc([N+](=O)[O-])cc2)C(C)C(=O)O)cc1 (stereo not given)", "log10 Ki", 0.49],
  ["CC(C(=O)O)N(Cc1ccc([N+](=O)[O-])cc1)C(=O)Nc1ccc(F)cc1 (stereo not given)", "log10 Ki", 0.73],
  ["CC(C(=O)NO)N(Cc1ccc([N+](=O)[O-])cc1)S(=O)(=O)c1cc(Cl)ccc1Cl (stereo not given)", "log10 Ki", 1.11],
  ["CC(C(=O)NO)N(Cc1ccc([N+](=O)[O-])cc1)S(=O)(=O)N(C)C (stereo not given)", "log10 Ki", 1.84],
  ["CC(C(=O)O)N(Cc1ccc([N+](=O)[O-])cc1)S(=O)(=O)c1cccc2ccccc12 (stereo not given)", "log10 Ki", 0.08],
  ["CC(C(=O)O)N(Cc1ccc([N+](=O)[O-])cc1)S(=O)(=O)c1cc(Cl)ccc1Cl (stereo not given)", "log10 Ki", 0.56],
  ["CC(C(=O)O)N(Cc1ccc([N+](=O)[O-])cc1)S(=O)(=O)c1cccc(C(=O)O)c1 (stereo not given)", "log10 Ki", 0.30],
  ["CC(C(=O)NO)N(Cc1ccc([N+](=O)[O-])cc1)S(=O)(=O)c1ccc([N+](=O)[O-])cc1 (stereo not given)", "log10 Ki", 1.00],
  ["CC(C(=O)O)N(Cc1ccc([N+](=O)[O-])cc1)C(=O)Nc1ccc(F)cc1F (stereo not given)", "log10 Ki", 0.79],
  ["CC(C(=O)O)N(Cc1ccc([N+](=O)[O-])cc1)S(=O)(=O)c1c(F)c(F)c(F)c(F)c1F (stereo not given)", "log10 Ki", -0.40],
  ["Cc1ccccc1S(=O)(=O)NC(=O)N(Cc1ccc([N+](=O)[O-])cc1)C(C)C(=O)O (stereo not given)", "log10 Ki", 0.49],
  ["CC(C(=O)O)N(Cc1ccc([N+](=O)[O-])cc1)S(=O)(=O)c1ccccc1 (stereo not given)", "log10 Ki", 1.32],
  ["CC(C(=O)O)N(Cc1ccc([N+](=O)[O-])cc1)S(=O)(=O)c1ccc(F)cc1 (stereo not given)", "log10 Ki", 1.00],
  ["CC(C(=O)NO)N(Cc1ccc([N+](=O)[O-])cc1)S(=O)(=O)C(F)(F)F (stereo not given)", "log10 Ki", 1.88],
  ["Cc1ccc(S(=O)(=O)N(Cc2ccc([N+](=O)[O-])cc2)C(C)C(=O)O)cc1 (stereo not given)", "log10 Ki", 1.11],
  ["CC(C(=O)NO)N(Cc1ccc([N+](=O)[O-])cc1)C(=O)Nc1cccc2ccccc12 (stereo not given)", "log10 Ki", 1.00],
  ["CC(C(=O)O)N(Cc1ccc([N+](=O)[O-])cc1)Sc1ccc([N+](=O)[O-])cc1 (stereo not given)", "log10 Ki", 0.74],
  ["CC(C(=O)O)N(Cc1ccc([N+](=O)[O-])cc1)C(=O)Nc1ccc(Cl)cc1 (stereo not given)", "log10 Ki", 0.81],
  ["CC(C(=O)O)N(Cc1ccc([N+](=O)[O-])cc1)S(=O)(=O)C(F)(F)C(F)(F)C(F)(F)C(F)(F)C(F)(F)C(F)(F)C(F)(F)C(F)(F)F (stereo not given)", "log10 Ki", 0.26],
  ["CC(C(=O)NO)N(Cc1ccc([N+](=O)[O-])cc1)S(=O)(=O)c1ccc(I)cc1 (stereo not given)", "log10 Ki", 1.57],
  ["CC(C(=O)O)N(Cc1ccc([N+](=O)[O-])cc1)C(=O)NS(=O)(=O)c1ccc(F)cc1 (stereo not given)", "log10 Ki", 0.52],
  ["CC(C(=O)NO)N(Cc1ccc([N+](=O)[O-])cc1)S(=O)(=O)C(Cl)(Cl)Cl (stereo not given)", "log10 Ki", 1.72],
  ["CC(C(=O)NO)N(Cc1ccc([N+](=O)[O-])cc1)C(=O)NS(=O)(=O)c1ccc(F)cc1 (stereo not given)", "log10 Ki", 0.95],
  ["CC(C(=O)NO)N(Cc1ccc([N+](=O)[O-])cc1)S(=O)(=O)c1ccc(F)cc1 (stereo not given)", "log10 Ki", 1.54],
  ["CC(C(=O)O)N(Cc1ccc([N+](=O)[O-])cc1)S(=O)(=O)c1ccc(Cl)cc1 (stereo not given)", "log10 Ki", 0.95],
  ["Cc1ccc(S(=O)(=O)NC(=O)N(Cc2ccc([N+](=O)[O-])cc2)C(C)C(=O)NO)cc1 (stereo not given)", "log10 Ki", 1.08],
  ["CC(C(=O)NO)N(Cc1ccc([N+](=O)[O-])cc1)S(=O)(=O)c1ccc2ccccc2c1 (stereo not given)", "log10 Ki", 0.90],
  ["CC(C(=O)O)N(Cc1ccc([N+](=O)[O-])cc1)S(=O)(=O)c1ccccc1[N+](=O)[O-] (stereo not given)", "log10 Ki", 0.68],
  ["Cc1ccc(S(=O)(=O)NC(=O)N(Cc2ccc([N+](=O)[O-])cc2)C(C)C(=O)O)cc1 (stereo not given)", "log10 Ki", 0.40],
  ["CC(C(=O)O)N(Cc1ccc([N+](=O)[O-])cc1)S(=O)(=O)c1cccc2c(N(C)C)cccc12 (stereo not given)", "log10 Ki", 0.04],
  ["CC(C(=O)NO)N(Cc1ccc([N+](=O)[O-])cc1)S(=O)(=O)c1cccc2cccnc12 (stereo not given)", "log10 Ki", 0.90],
  ["CC(C(=O)O)N(Cc1ccc([N+](=O)[O-])cc1)S(=O)(=O)c1cccc([N+](=O)[O-])c1 (stereo not given)", "log10 Ki", 0.74],
  ["COc1ccc(S(=O)(=O)N(Cc2ccc([N+](=O)[O-])cc2)C(C)C(=O)O)cc1NC(=O)OC(C)(C)C (stereo not given)", "log10 Ki", 0.32]
]}
